Hello, the source for this data is patent US10167285B2, in case you need it.

Target: recombinant Hsp90α (Homo sapiens (Human), UniProt P07900)
Assay: Hsp90 competition assay (fluorescence polarization), recombinant protein
Type: binding
Settings: average of 3 measurements; displacement of fluorescent GM; read-out: EC50 Hsp90-α
// reported EC50 for each item listed
RECORDED ENDPOINT: EC50 (µM)

INSERT INTO measurements (structure, qualifier, assay_result) VALUES
  ('C#CCCCn1c(Sc2cc(Cl)c(Cl)cc2Cl)nc2c(N)ncnc21', '=', 8.5),
  ('Nc1ncnc2nc(Sc3cc(Cl)c(Cl)cc3Cl)[nH]c12', '=', 15.4),
  ('C#CCCCn1c(Cc2cc(OC)c(OC)cc2Cl)nc2c(N)nc(F)nc21', '=', 4.6),
  ('C#CCCCn1c(Cc2cc(OC)c(OC)cc2Br)nc2c(N)nc(F)nc21', '>', 15),
  ('CC(C)NCCCn1c(Cc2cc3c(cc2I)OCO3)nc2c(N)nc(F)nc21', '=', 0.0504),
  ('C#CCCCn1c(Cc2cc3c(cc2I)OCO3)nc2c(N)nc(F)nc21', '=', 0.0223),
  ('C#CCCCn1c(Cc2cc3c(cc2Cl)OCO3)nc2c(N)nc(F)nc21', '=', 0.0772),
  ('C#CCCCn1c(Cc2cc(OC)c(OC)cc2I)nc2c(N)nc(F)nc21', '>', 15),
  ('COc1cc(Sc2nc3c(N)ncnc3n2CCOC(C)C)c(Cl)cc1Cl', '=', 5),
  ('C#CCCCn1c(Cc2cc3c(cc2Br)OCO3)nc2c(N)nc(F)nc21', '=', 0.0565);

----------
Listed next: entries and their corresponding solubility.
Assay: Solubility in PBS
Format: physicochemical
Conditions: aqueous buffer, acid addition salt form
RECORDED ENDPOINT: solubility

INSERT INTO measurements (structure, recorded_endpoint, assay_result) VALUES
  ('CC(C)NCCCn1c(Sc2cc3c(cc2I)OCO3)nc2c(N)ncnc21', 'solubility', '> 5 mM'),
  ('CC(C)NCCCn1c(Cc2cc3c(cc2I)OCO3)nc2c(N)nc(F)nc21', 'solubility', '> 5 mM');
